Origin of the recorded values: patent US20080166364A1

tgt: T1, human angiopoietin-2 protein (human, UniProt O15123 19-496)
T1 construct: bought; also called Ang-2; Ang2
T1 sequence (looked up): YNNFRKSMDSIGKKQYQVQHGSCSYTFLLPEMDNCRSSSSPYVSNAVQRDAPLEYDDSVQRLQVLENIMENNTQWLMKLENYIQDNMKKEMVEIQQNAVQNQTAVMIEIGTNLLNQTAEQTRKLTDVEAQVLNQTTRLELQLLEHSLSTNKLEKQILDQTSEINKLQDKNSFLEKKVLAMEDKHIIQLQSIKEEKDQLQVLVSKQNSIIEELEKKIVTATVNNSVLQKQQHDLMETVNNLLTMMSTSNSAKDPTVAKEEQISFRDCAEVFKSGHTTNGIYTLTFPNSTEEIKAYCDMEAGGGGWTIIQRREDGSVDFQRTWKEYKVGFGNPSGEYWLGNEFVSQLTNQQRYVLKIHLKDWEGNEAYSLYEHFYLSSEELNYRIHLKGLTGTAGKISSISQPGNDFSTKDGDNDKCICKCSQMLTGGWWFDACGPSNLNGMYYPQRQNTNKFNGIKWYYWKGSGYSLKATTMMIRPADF
method.description: competitive ELISA, coated Ang-2, 0.25 nM hTie-2-Fc; T form
Non-standard residues stand in square brackets, D forms with d. No end group written: not given here. Phe(4-COOH) = N[C@@H](Cc1ccc(C(=O)O)cc1)C(=O)O; Bpa = N[C@@H](Cc1ccc(C(=O)c2ccccc2)cc1)C(=O)O; Hyp = O=C(O)[C@@H]1C[C@@H](O)CN1; 0P linker = not defined here; acyl = not defined here; ThA = thiazolylalanine
Decide using IC50 alone. Strictly below 200 nM: rule met. Equal to or above 200 nM: rule not met.

- QRYQPLDELDXTLYDQFMLQQG (not fully specified; N-term acyl cap; C-term NH2 cap; 0P linker on K11) [Compound 59 (T): targeting peptide plus 0P linker]: rule met
- acyl-QK(Ac)YQ[Hyp]LDE[ThA]DK(0P linker)TL[Bpa]DQFMLQQG-NH2 (reading uncertain) [Compound 46 (T): targeting peptide plus 0P linker]: rule met
- QNYQPLDELDXTLYDQFMLQQG (not fully specified; N-term acyl cap; C-term NH2 cap; 0P linker on K11) [Compound 28 (T): targeting peptide plus 0P linker]: rule met
- QXYQPLDELDXTLYDQFMLQQG (N-term acyl cap; C-term NH2 cap; (ClBnCarbamate)K at 2; 0P linker on K11, only one IC50 printed, standing in column T) [Compound 53 (T): targeting peptide plus 0P linker]: rule met
- QXYQPLDELDXTXYDQFMLQQG (not fully specified; N-term acyl cap; C-term NH2 cap; AcK at 2; 0P linker on K11; HF at 13) [Compound 39 (T): targeting peptide plus 0P linker]: rule not met
- QK(Ac)YQPLDEK(0P linker)DETLYDQFMLQQG (not fully specified (N-terminus, C-terminus); printed as Q(AcK)Y QPL DEK(0P) DET LYD QFM LQQ G; reading uncertain) [Compound 33 (T): targeting peptide plus 0P linker]: rule not met
- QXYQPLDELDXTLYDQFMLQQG (not fully specified; N-term acyl cap; C-term NH2 cap; AcK at 2; 4P linker on K11) [Compound 24 (T): targeting peptide plus 4P linker]: rule not met
- QNYQPLDELDK(0P linker)TL[Phe(4-COOH)]DQFMLQQG (not fully specified (N-terminus, C-terminus); printed as QNY QPL DEL DK(0P)T L(CF)D QFM LQQ G; reading uncertain) [Compound 57 (T): targeting peptide plus 0P linker]: rule met
- acyl-QK(Ac)YQ[Hyp]LDE[ThA]DK(0P linker)TL[Phe(4-COOH)]DQFMLQQG-NH2 (reading uncertain; also: printed as Q(AcK)Y Q(HP)L DE(ThA) DK(0P)T L(CO2H)FD QFM LQQ G) [Compound 47 (T): targeting peptide plus 0P linker]: rule met
